biological target: Nanoluciferase-BRD9 fusion protein (3×FLAG-NLuc-BRD9) in SYO-1 cells (Homo sapiens (Human), UniProt Q9H8M2); test: SYO1 BRD9 NanoLuc degradation assay; type: cell-based; settings: SYO-1 cells expressing 3×FLAG-NLuc-BRD9, 6 hours incubation, top dose 1 μM
Sequence (Q9H8M2 whole entry, the tested form may be a part): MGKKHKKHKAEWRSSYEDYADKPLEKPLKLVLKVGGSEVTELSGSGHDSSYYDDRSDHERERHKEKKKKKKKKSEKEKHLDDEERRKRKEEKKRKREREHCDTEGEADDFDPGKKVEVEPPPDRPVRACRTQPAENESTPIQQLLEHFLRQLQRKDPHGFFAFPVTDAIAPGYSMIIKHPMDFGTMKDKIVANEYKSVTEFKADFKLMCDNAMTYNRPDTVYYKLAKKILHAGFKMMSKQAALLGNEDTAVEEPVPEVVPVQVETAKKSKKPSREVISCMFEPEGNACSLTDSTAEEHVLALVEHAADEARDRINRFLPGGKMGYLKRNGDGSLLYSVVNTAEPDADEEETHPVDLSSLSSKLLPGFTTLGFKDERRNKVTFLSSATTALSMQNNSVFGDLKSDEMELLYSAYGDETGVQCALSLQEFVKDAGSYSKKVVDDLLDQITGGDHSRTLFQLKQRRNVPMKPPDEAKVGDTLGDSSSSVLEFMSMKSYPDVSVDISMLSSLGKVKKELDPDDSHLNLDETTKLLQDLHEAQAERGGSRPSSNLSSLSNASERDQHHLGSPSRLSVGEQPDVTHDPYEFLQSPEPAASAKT
measure_name: IC50

compound: CNC(=O)N1CCc2c(-c3cc(OC)c(CN4CCC5(CC4)CCN(C(C)(C)C#Cc4ccc6c(c4)C(=O)N(C4CCC(=O)NC4=O)C6=O)C5)c(OC)c3)cn(C)c(=O)c2C1 (centres unmarked)
IC50: 10 to 100 nM

What value of IC50 has been reported for the following compound? CNC(=O)N1CCc2c(-c3cc(OC)c(CN4CC(S(=O)(=O)NCCN5CCN(c6ccc7c(c6)C(=O)N(C6CCC(=O)NC6=O)C7=O)CC5)C4)c(OC)c3)cn(C)c(=O)c2C1 (centres unmarked) 100 to 1000 nM

Then what about the compound COc1cc(-c2cn(C)c(=O)c3c2CCN(C(=O)NC2CC2)C3)cc(OC)c1CN1CCC(CCN2CCN(c3ccc4c(c3)C(=O)N(C3CCC(=O)NC3=O)C4=O)CC2)CC1 (centres unmarked) ? < 10 nM

Then what about the compound CNC(=O)N1CCc2c(-c3cc(OC)c(CN4CC(CN5CC6(CCN(c7ccc8c(c7)C(=O)N(C7CCC(=O)NC7=O)C8=O)C6)C5)C4)c(OC)c3)cn(C)c(=O)c2C1 (centres unmarked) ? 10 to 100 nM

Then what about the compound COCCNC(=O)N1CCc2c(-c3cc(OC)c(CN4CCN(CCC5CCN(c6ccc7c(c6)C(=O)N(C6CCC(=O)NC6=O)C7=O)CC5)CC4)c(OC)c3)cn(C)c(=O)c2C1 (centres unmarked) ? < 10 nM

---

molecular target: Nanoluciferase-BRD9 fusion protein (3×FLAG-NLuc-BRD9) in SYO-1 cells (Homo sapiens (Human)); assay: SYO1 BRD9 NanoLuc degradation assay; format: cell-based; settings: SYO-1 cells expressing 3×FLAG-NLuc-BRD9, 6 hours incubation, top dose 1 μM
pIC50: −log10 of the molar value.
// pIC50 lookup, one value per entry

Consider the reported pIC50 for these molecules:
molecule: CNC(=O)N1CCc2c(-c3cc(OC)c(CN4CCC(C#Cc5ccc6c(c5)C(=O)N(C5CCC(=O)NC5=O)C6=O)CC4)c(OC)c3)cn(C)c(=O)c2C1 (centres unmarked) [Compound D143]
pIC50: > 8.00
//
molecule: CNC(=O)N1CCc2c(-c3cc(OC)c(CN4CCC(CCN5CCN(c6ccc7nn(C8CCC(=O)NC8=O)c(=O)n7c6)CC5)CC4)c(OC)c3)cn(C)c(=O)c2C1 (centres unmarked) [Compound D57]
pIC50: 7.00 to 8.00
//
molecule: COc1cc(-c2cn(C)c(=O)c3c2CCN(C(=O)NCCN2CCC4(CC2)CCN(c2ccc5c(c2)C(=O)N(C2CCC(=O)NC2=O)C5=O)C4)C3)cc(OC)c1CN(C)C (centres unmarked) [Compound D209]
pIC50: 7.00 to 8.00
//
molecule: CNC(=O)N1CCc2c(-c3cc(OC)c(CN4CCN(CCC5CCN(c6ccc7c(c6)C(=O)N(C6CCC(=O)NC6=O)C7=O)CC5)CC45COC5)c(OC)c3)cn(C)c(=O)c2C1 (centres unmarked) [Compound D98]
pIC50: > 8.00

What value of pIC50 has been reported for the following molecule? CNC(=O)N1CCc2c(c(-c3cc(OC)c(CN(C)CCOCCN4CCN(c5ccc6c(c5)C(=O)N(C5CCC(=O)NC5=O)C6=O)CC4)c(OC)c3)cn(C)c2=O)C1 (centres unmarked) [Compound D296] ≤ 6.00
